Target: Fibroblast growth factor receptor 3 (Homo sapiens)
Details: at 1 µM
Catalogue of molecules with associated residual activity
Please give a number only; it is taken to be in %.

Solved entries (count: 2):
# Compound Structure, residual activity (%)
rows = [
    ("CC(C)[C@H](CO)Nc1nc(Nc2cc(N)cc(Cl)c2)c2ncn(C(C)C)c2n1", 92),
    ("Nc1ncnc2c1cnn2-c1ccccc1", 76),
]

Incoming: Can you look up the measured residual activity of O=C1NC(=O)C(c2c[nH]c3ccccc23)=C1c1c[nH]c2ccccc12 for me?
Outgoing: 27

Incoming: residual activity lookup needed for COc1cc2nccc(Oc3ccc(NC(=S)NC(=O)c4ccccc4C)cc3)c2cc1OC , thanks.
Outgoing: 90

Incoming: What value of residual activity has been recorded for this entry: Nc1ncnc2c1c(-c1ccc(Oc3ccccc3)cc1)cn2C1CCCC1
Outgoing: 41

Incoming: For the molecule O=C1Cc2c([nH]c3ccc([N+](=O)[O-])cc23)-c2ccccc2N1 , what residual activity is on record?
Outgoing: 125

====

Target: Serine/threonine-protein kinase ULK2 (Homo sapiens) (UniProt Q8IYT8)
Sequence (Q8IYT8 whole entry): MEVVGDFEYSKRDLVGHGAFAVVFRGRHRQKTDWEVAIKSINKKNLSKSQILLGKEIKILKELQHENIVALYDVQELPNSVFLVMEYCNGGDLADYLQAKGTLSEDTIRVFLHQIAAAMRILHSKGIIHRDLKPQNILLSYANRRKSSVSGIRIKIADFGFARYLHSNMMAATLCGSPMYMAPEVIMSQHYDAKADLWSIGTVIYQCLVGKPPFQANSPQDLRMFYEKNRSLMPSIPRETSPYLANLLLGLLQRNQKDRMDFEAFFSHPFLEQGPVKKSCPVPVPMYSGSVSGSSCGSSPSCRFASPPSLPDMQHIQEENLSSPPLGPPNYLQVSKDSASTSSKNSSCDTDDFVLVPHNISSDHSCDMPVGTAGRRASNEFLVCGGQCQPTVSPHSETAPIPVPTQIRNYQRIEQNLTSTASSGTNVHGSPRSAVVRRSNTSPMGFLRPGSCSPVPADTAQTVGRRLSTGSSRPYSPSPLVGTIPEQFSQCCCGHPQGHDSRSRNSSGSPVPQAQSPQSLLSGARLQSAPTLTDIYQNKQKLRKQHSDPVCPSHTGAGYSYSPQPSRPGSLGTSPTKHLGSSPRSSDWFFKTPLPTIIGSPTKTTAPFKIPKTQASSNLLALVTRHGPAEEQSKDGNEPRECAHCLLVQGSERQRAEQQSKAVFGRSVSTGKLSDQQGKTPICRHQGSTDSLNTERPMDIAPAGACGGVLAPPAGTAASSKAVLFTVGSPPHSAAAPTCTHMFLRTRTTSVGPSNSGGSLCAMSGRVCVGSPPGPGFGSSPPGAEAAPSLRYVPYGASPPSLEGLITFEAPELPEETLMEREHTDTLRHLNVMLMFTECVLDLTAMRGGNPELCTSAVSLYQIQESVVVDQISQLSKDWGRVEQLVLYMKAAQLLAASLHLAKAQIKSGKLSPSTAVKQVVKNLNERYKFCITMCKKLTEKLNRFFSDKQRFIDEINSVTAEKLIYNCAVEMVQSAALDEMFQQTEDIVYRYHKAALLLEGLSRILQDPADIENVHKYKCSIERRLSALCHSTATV
Details: at 1 µM
Reported Property: residual activity (%)
State just the number; it will be interpreted in %.

# Compound Structure, Tgt, Unit Symbol, residual activity
records = [
    ("COc1cc2nccc(Oc3ccc(NC(=S)NC(=O)c4ccccc4C)cc3)c2cc1OC", "Serine/threonine-protein kinase ULK2 (Homo sapiens) (UniProt Q8IYT8)", "%", 101),
    ("Cn1c2ccccc2c2c3c(c4c5ccccc5n(CCC#N)c4c21)CNC3=O", "Serine/threonine-protein kinase ULK2 (Homo sapiens) (UniProt Q8IYT8)", "%", 99),
]

Incoming: I have this molecule here, O=C(c1cc2cc(O)ccc2[nH]1)c1cc2cc(O)ccc2[nH]1 , and I need its recorded residual activity.
Outgoing: 82

Incoming: Value lookup for residual activity; key = O=C(O)/C=C/c1cc(Br)c(Br)c(Br)c1Br
Outgoing: 109

Incoming: State the recorded residual activity for this entry: O=C(Nc1ccc(Cl)cc1)c1ccccc1NCc1ccncc1
Outgoing: 102

Incoming: Which residual activity value is on record for CN(C)S(=O)(=O)c1ccc2c(c1)/C(=C/c1cc3c([nH]1)CCCC3)C(=O)N2 ?
Outgoing: 38

Incoming: Bench note: what residual activity did COc1cc2nccc(Oc3ccc(NC(=O)Nc4cc(C)on4)c(Cl)c3)c2cc1OC show?
Outgoing: 97

Incoming: # query: residual activity of entry O=c1cc(N2CCNCC2)oc2c(-c3ccccc3)cccc12
Outgoing: 100

Incoming: Sample Nc1ncnc2[nH]nc(Nc3ccc(F)cc3)c12 — what was its residual activity?
Outgoing: 120

Incoming: Look up residual activity for this molecule: O=c1cc(N2CCOCC2)oc2c1ccc1ccccc12
Outgoing: 102

Incoming: Given NC(=O)Nc1sc(-c2ccc(F)cc2)cc1C(N)=O , state its recorded residual activity.
Outgoing: 86

====

Molecular target: Tyrosine-protein kinase ABL1 (Homo sapiens) (UniProt P00519)
Sequence (P00519 whole entry): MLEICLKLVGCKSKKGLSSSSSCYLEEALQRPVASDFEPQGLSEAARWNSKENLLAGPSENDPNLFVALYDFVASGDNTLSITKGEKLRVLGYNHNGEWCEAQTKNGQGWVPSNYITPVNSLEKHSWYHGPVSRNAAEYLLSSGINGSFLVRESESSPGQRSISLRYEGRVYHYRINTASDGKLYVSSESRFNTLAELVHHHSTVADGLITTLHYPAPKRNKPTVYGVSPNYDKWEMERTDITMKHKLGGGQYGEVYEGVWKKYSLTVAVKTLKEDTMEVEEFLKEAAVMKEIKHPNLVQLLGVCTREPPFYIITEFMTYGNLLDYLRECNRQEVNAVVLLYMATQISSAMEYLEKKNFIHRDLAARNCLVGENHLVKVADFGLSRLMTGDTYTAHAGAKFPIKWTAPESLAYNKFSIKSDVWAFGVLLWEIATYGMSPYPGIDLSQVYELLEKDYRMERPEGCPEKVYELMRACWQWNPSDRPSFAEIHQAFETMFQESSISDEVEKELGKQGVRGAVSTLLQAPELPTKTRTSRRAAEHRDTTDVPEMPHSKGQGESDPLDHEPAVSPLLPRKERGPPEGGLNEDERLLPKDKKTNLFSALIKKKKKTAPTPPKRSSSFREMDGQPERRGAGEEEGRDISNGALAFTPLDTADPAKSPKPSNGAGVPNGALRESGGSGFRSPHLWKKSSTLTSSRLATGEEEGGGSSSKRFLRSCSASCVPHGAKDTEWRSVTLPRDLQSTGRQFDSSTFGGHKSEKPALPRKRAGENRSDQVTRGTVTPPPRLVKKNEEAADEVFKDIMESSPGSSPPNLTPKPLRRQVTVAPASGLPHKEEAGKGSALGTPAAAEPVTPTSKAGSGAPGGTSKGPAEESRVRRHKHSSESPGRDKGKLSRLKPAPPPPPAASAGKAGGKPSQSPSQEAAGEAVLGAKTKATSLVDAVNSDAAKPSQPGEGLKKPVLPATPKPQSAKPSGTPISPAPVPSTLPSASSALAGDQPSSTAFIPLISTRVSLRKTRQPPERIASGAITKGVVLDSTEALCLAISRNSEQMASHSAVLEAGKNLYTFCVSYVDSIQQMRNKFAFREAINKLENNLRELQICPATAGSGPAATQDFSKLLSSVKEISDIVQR
Conditions: at 10 µM
Listed here: items and their measured residual activity.
Quick reminder: number only, in %, skip the unit.

Some solved cases for reference:
# Compound Structure, Reported Property, Numeric Value
rows = [
    ("COc1cc2nccc(Oc3ccc(NC(=S)NC(=O)c4ccccc4C)cc3)c2cc1OC", "residual activity", 9),
    ("O=C(c1ccccc1)c1ccc(N2CCOCC2)cc1O", "residual activity", 82),
    ("N#C/C(=C1/Nc2ccccc2S1)c1ccnc(NCCc2cccnc2)n1", "residual activity", 80),
    ("NC(=O)Nc1sc(-c2ccc(F)cc2)cc1C(N)=O", "residual activity", 32),
    ("CCCC(=O)Oc1ccc2[nH]c(C(=O)c3cc4ccccc4[nH]3)cc2c1", "residual activity", 96),
]

Incoming: Quick check: residual activity of O=C1Cc2c([nH]c3ccc(Br)cc23)-c2ccccc2N1 ?
Outgoing: 39

Incoming: Look at this compound and give its reported residual activity. Nc1ncnc2c1c(-c1ccc(Oc3ccccc3)cc1)cn2C1CCCC1
Outgoing: 6

Incoming: Recorded residual activity of O=C1NC(=O)C(c2c[nH]c3ccccc23)=C1c1c[nH]c2ccccc12 , please.
Outgoing: 68

Incoming: Consider the compound shown here: COc1cc2ncnc(Nc3cccc(Cl)c3)c2cc1OC What is its recorded residual activity?
Outgoing: 14

Incoming: Requested field: residual activity. Item: CCCCc1c(-c2ccc(O)cc2)[nH]c2nccnc12
Outgoing: 44

Incoming: Returns the measured residual activity for the input compound. Input: CN(C)S(=O)(=O)c1ccc2c(c1)/C(=C/c1cc3c([nH]1)CCCC3)C(=O)N2
Outgoing: 72

Incoming: // query residual activity value for entry O=C1Nc2ccc(Cl)cc2/C1=C/c1cc(Cl)c(O)c(Cl)c1
Outgoing: 42
